Recorded GI50, one value per entry.
system: IGROV-1; assay: NCI tumour cell line growth inhibition, 48 h
Active and inactive are the calls of the source. Rule as the data show it: active = GI50 up to about 1.1 µM and inactive = higher.

Here are 3 compounds together with their reported answers.
Compound	GI50
O=C(Nn1c(-c2ccccc2)nc2ccccc2c1=O)c1ccc([N+](=O)[O-])cc1	> 100 µM (inactive)
Cc1cc2c(cc1-c1cc3c(cc1C)C(C(C)C)=C(O)C(=O)/C3=C\NCC1CCCN3CCCCC13)/C(=C/NCC1CCCN3CCCCC13)C(=O)C(O)=C2C(C)C (centres undefined)	5.97 µM (inactive)
C=C(C)[C@H]1CC23C(=O)C(C(=O)C(C)C)=C(O)[C@](C)(C[C@H]2C1(C)C)C3=O [LALIBINONE B]	12.5 µM (inactive)

So for COc1ccc(/N=N/c2c(N)nn(C)c2N)cc1 , the logged GI50 turned out to be > 100 µM (inactive)

So for Cc1ccc(C(=O)/C=C/N2CCN(c3cccc(C(F)(F)F)c3)CC2)cc1 , the logged GI50 turned out to be 16.3 µM (inactive)

So for CCOC(=O)[C@@]12NN=N[C@@H]1[C@H]1CO[C@H](c3ccccc3)N1C2=O , the logged GI50 turned out to be 5.24 µM (inactive)

So for O=C(N/N=C/c1ccc([N+](=O)[O-])cc1)c1cccc2nc3ccccc3nc12 , the logged GI50 turned out to be > 100 µM (inactive)

So for CC(=O)c1ccc(-c2oc(-c3ccccc3)cc2-c2ccc3c(c2)OCO3)s1 , the logged GI50 turned out to be > 100 µM (inactive)

So for C[N+](C)(C)CC1CCCCC1O (centres undefined) , the logged GI50 turned out to be > 100 µM (inactive)
